Organism: Gallus gallus
assay.method.text: Number of chicks cleared of eimeria tenella lesions out of a group of 5 when given in the diet at 50 p.p.m.
Format: functional
value.type: No. of chicks
# print the numeric value only

| compound | No. of chicks |
| --- | --- |
| CCCSc1ncnc2c1cnn2C1O[C@H](CO)[C@@H](O)[C@H]1O (stereo partly drawn) | 0 |

GET /value?item= CCCCSc1ncnc2c1cnn2C1O[C@H](CO)[C@@H](O)[C@H]1O (stereo partly drawn) &field=No. of chicks returns 0

Form field No. of chicks, entry C/C=C/CSc1ncnc2c1cnn2C1O[C@H](CO)[C@@H](O)[C@H]1O (stereo partly drawn) : 0

* * *

Species on record: Gallus gallus
assay.method.text: Number of chicks cleared of eimeria tenella lesions out of a group of 5 when given in the diet at 200 p.p.m.
Type: functional
Parameter: No. of chicks. Scope: all listed entries.
Format: numeric value only, no unit, no commentary.

Some solved entries appear below for comparison.
| molecule | value.type | test.value |
| --- | --- | --- |
| OC[C@H]1OC(n2ncc3cncnc32)[C@H](O)[C@@H]1O (stereo partly specified) | No. of chicks | 1 |
| CCCSc1ncnc2c1cnn2C1O[C@H](CO)[C@@H](O)[C@H]1O (stereo partly specified) | No. of chicks | 4 |
| CSc1ncnc2c1cnn2C1O[C@H](CO)[C@@H](O)[C@H]1O (stereo partly specified) | No. of chicks | 3 |

Per the record, CCCCCCCSc1ncnc2c1cnn2C1O[C@H](CO)[C@@H](O)[C@H]1O (stereo partly specified) has No. of chicks of 1

Field No. of chicks (entry CCSc1ncnc2c1cnn2C1O[C@H](CO)[C@@H](O)[C@H]1O (stereo partly specified) ) reads 5

GET /value?item= OC[C@H]1OC(n2ncc3c(S)ncnc32)[C@H](O)[C@@H]1O (stereo partly specified) &field=No. of chicks returns 2

* * *

Test system: Eimeria tenella
assay.method.text: Inhibition Eimeria tenella growth
Assay type: functional
experimental.setup: read-out: MEC
value.type: minimal effective concentration

Here are 6 compounds together with their reported answers.
| compound | target.or.test.system | minimal effective concentration |
| --- | --- | --- |
| CSc1[nH]cnc2nncc1-2 | Eimeria tenella | 20 µg/mL |
| CSc1ncnc2c1cnn2C1O[C@H](CO)[C@@H](O)[C@H]1O (stereo partly specified) | Eimeria tenella | 0.03 µg/mL |
| CCSc1[nH]cnc2ncnc1-2 | Eimeria tenella | > 20 µg/mL |
| CSc1ncnc2c1ncn2[C@H]1C[C@H](O)[C@@H](CO)O1 | Eimeria tenella | 50 µg/mL |
| CSc1nc(N)nc2c1ncn2[C@@H]1O[C@H](CO)[C@@H](O)[C@H]1O | Eimeria tenella | 50 µg/mL |
| CC(=O)CSc1ncnc2c1cnn2C1O[C@H](CO)[C@@H](O)[C@H]1O (stereo partly specified) | Eimeria tenella | > 20 µg/mL |

Kindly consider the entry below.
Lab note: compound CCCCCSc1ncnc2c1cnn2C1O[C@H](CO)[C@@H](O)[C@H]1O (stereo partly specified) tested on Eimeria tenella; recorded minimal effective concentration was 0.31 µg/mL

* * *

System: Eimeria tenella
assay.method.text: Inhibition Eimeria tenella growth
Type: functional
experimental.setup: read-out: MEC
value.type: minimal effective concentration (µg/mL)
Give a bare numeral; the unit µg/mL is implied.

Below, each entry is followed by its recorded minimal effective concentration result.
| molecule | minimal effective concentration [µg/mL] |
| --- | --- |
| CSc1ncnc2c1nnn2[C@@H]1O[C@H](CO)[C@@H](O)[C@H]1O | 1.25 |
| C=CCSc1ncnc2c1cnn2C1O[C@H](CO)[C@@H](O)[C@H]1O (stereo partly drawn) | 0.019 |
| OC[C@H]1OC(n2ncc3c(S)ncnc32)[C@H](O)[C@@H]1O (stereo partly drawn) | 0.31 |

Data point: CCCCCCSc1ncnc2c1cnn2C1O[C@H](CO)[C@@H](O)[C@H]1O (stereo partly drawn) ; minimal effective concentration = 0.019

get_value(item= CCSc1ncnc2c1cnn2C1O[C@H](CO)[C@@H](O)[C@H]1O (stereo partly drawn) , readout=minimal effective concentration) returns 0.31
